System: CEM cells HIV-1 protection, formazan growth assay
Assay: NCI AIDS Antiviral Assay
Conditions: measured here: growth of uninfected CEM cells
MEASUREMENT TYPE: IC50 (µM)
Only the number, expressed in µM, is required.

CCOC(=O)Oc1ccc2[nH]c3c(C)cc(N)c(C)c3c2c1 = 39.8

[Q] Report IC50 for Cc1cn(C2CC(O[Si](C)(C)C(C)(C)C)C(C/[N+]([O-])=N\Nc3ccc([N+](=O)[O-])cc3)O2)c(=O)[nH]c1=O (stereo not given) please.
[A] 3.31

[Q] Report IC50 for c1ccc2c(c1)CCc1[nH]c3c(c1-2)-c1ccccc1CC3 please.
[A] 30.9

The reported numbers originate from PubChem BioAssay AID179.
